Taken from patent US20250223281A1.

# Target under test: GPR40 (Homo sapiens)
# Construct: expressed in transfected cells; host or cells: HEK293 cells stably expressing GPR40 (Hygromycin selection)
# Sequence (O14842 whole entry): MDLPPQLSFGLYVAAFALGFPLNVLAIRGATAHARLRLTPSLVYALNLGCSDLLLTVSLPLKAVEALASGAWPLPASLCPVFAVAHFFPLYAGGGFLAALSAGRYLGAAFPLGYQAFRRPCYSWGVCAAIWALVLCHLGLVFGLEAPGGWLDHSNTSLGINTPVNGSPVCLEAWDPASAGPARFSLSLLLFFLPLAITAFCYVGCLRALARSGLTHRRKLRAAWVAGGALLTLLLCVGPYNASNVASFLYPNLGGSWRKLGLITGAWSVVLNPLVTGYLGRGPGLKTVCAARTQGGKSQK
# Assay summary: IP1 accumulation assay in HEK293 cells stably expressing GPR40
# Assay type: cell-based
# Condition info: IP1 accumulation, HEK293 cells stably expressing GPR40, 2 hours at 37° C., % effect relative to AMG-1638; table of Biological Example 1
Result type: pEC50
One number for each entry, as −log10 of the molar value.

// solved cases for pEC50 follow
{"Molecule": "COc1ccc(C(=O)N(CC(C)(C)CCn2cc(CCCCCCCCCCCCCCC(=O)NCCC[N+](C)(CC(=O)[O-])CC(=O)O)nn2)c2cccc(C)n2)c(N2CCC(COc3cc([C@@H](CC(=O)O)C4CC4)ccn3)CC2)c1 (stereo partly drawn) [Example 131]", "pEC50": 9.42}
{"Molecule": "C[C@H](C(=O)O)[C@H](c1ccc2c(c1)O[C@@H](C1CCN(Cc3cc(-c4cn(CCCCCCCCCCCCCCCC(=O)NCCN(CCC(=O)NCCN)CCC(=O)NCCN)nn4)ccc3OC(F)(F)F)CC1)CC2)C1CC1 [Example 39]", "pEC50": 9.08}
{"Molecule": "COc1ccc(C(=O)N(CC(C)(C)CCCCCCn2cc(CCCCCCCCCCC(=O)NCCN(CCC(=O)NCCN)CCC(=O)NCCN)nn2)c2cccc(C)n2)c(N2CCC(COc3cc([C@@H](CC(=O)O)C4CC4)ccn3)CC2)c1 [Example 74]", "pEC50": 8.52}
{"Molecule": "COc1ccc(F)c(-c2ccc(COc3cccc([C@@H](CC(=O)O)C4CC4)c3)cc2OC(C)(C)Cn2cc(CCCCCCCCCCCCCCC(=O)NCCN(CCC(=O)NCCN)CCC(=O)NCCN)nn2)c1 [Example 138]", "pEC50": 8.16}
{"Molecule": "COc1ccc(C(=O)N(CC(C)(C)CCCCCCn2cc(CCCCC(=O)NCCC[N+](C)(CC(=O)[O-])CC(=O)O)nn2)c2cccc(C)n2)c(N2CCC(COc3cc([C@@H](CC(=O)O)C4CC4)ccn3)CC2)c1 (stereo partly drawn) [Example 211]", "pEC50": 7.18}
{"Molecule": "COc1ccc(F)c(-c2ccc(COc3cccc([C@@H](CC(=O)O)C4CC4)c3)cc2CC(C)(C)Cn2cc(CCCCCCCCCCCCCCC(=O)NCCCN(CC(=O)O)CC(=O)O)nn2)c1 [Example 108]", "pEC50": 6.51}

Now examine the next entry.
Challenge: Please supply the value of reported pEC50 for the item COc1ccc(C(=O)N(CC(C)(C)CCCCCCn2cc(CCCCCCCCCCCC(=O)NCCCN(CC(=O)O)CC(=O)O)nn2)c2cccc(C)n2)c(N2CCC(COc3cc([C@@H](CC(=O)O)C4CC4)ccn3)CC2)c1 [Example 205]
Response given: 9.03
